system: DMS 273 small cell lung; assay: NCI tumour cell line growth inhibition, 48 h
Overview of reported TGI across a group of molecules:

| MOLECULE | RECORDED_RESULT |
| --- | --- |
| CCOC(=O)C(=O)Nc1nc2c(s1)C(=O)c1ccccc1C2=O | 40.6 µM |
| CCOC(=O)/C(O)=C1\C(=O)N(C)C(=O)C1c1ccc(OC)c(OC)c1 (stereo not drawn) | > 100 µM |

Query: May I ask what TGI has been recorded for Nc1ccn(CCOC(=O)c2ccccc2)c(=O)n1 ?
Response: > 100 µM

###

system: NCI-H522 lung; test: NCI tumour cell line growth inhibition, 48 h; in the data active = GI50 below about 0.43 µM; inactive = the rest
Valid outcomes are listed here; reply with one: YES = active, NO = inactive

Answered examples (3):
| COMPOUND | CLASS_ASSIGNMENT |
| --- | --- |
| O=C(CN1CCN(c2ncccn2)CC1)Nc1ccc(Cl)cc1C(=O)c1ccccc1Cl | NO |
| COC(=O)N[C@H]1CCc2c(Br)c(OC)c(OC)c(OC)c2-c2ccc(SC)c(=O)cc21 | YES |
| C[C@@H]1C[C@@H](O)[C@]2(O)O[C@@H]3C[C@@]4(C=O)[C@@H](CC[C@@H]5[C@@H]4CC[C@]4(C)[C@@H](C6=CC(=O)OC6)CC[C@]54O)C[C@H]3O[C@@H]2O1 | YES |

Now examine the next entry.
Query: What outcome does the record of this test show for COc1cc(C2C=C(c3cccc(NC(C)=O)c3)Nc3ncnn32)cc(OC)c1OC (centres undefined) ?
Response: NO
